experiment: Systemic clearance in Sprague-Dawley rat at 5 mg/kg, iv after 24 hrs by LC/MS/MS analysis; assay type: ADME, organism-based; set-up: dose 5 mg/kg, route intravenous; conditions: in vivo
Property Measured: clearance (mL/min/kg)
Write the value in mL/min/kg as a bare number.

// query What does the data say about its clearance? Entry: C/C=C/C[C@@H](C)[C@@H](O)[C@H]1C(=O)N[C@@H](CC)C(=O)N(C)C(SCCN(C)C)C(=O)N(C)[C@@H](CC(C)(C)O)C(=O)N[C@@H](C(C)C)C(=O)N(C)[C@@H](CC(C)C)C(=O)N[C@@H](C)C(=O)N[C@H](C)C(=O)N(C)[C@@H](CC(C)C)C(=O)N(C)[C@@H](CC(C)C)C(=O)N(C)[C@@H](C(C)C)C(=O)N1C (single isomer, unassigned) [SCY 635]
// result 2.23

* * *

assay: Cytotoxicity against human Huh7ET cells assessed as lactate dehydrogenase release after 72 hrs; type: cell-based, Huh-7
Property Measured: CC50 at 72 h
Please answer using the number first and the unit second.

// query What does the data say about its CC50 at 72 h? Entry: C/C=C/C[C@@H](C)[C@@H](O)[C@H]1C(=O)N[C@@H](CC)C(=O)N(C)C(SCCN(C)C)C(=O)N(C)[C@@H](CC(C)(C)O)C(=O)N[C@@H](C(C)C)C(=O)N(C)[C@@H](CC(C)C)C(=O)N[C@@H](C)C(=O)N[C@H](C)C(=O)N(C)[C@@H](CC(C)C)C(=O)N(C)[C@@H](CC(C)C)C(=O)N(C)[C@@H](C(C)C)C(=O)N1C (single isomer, unassigned) [SCY 635]
// result 14.2 µM

* * *

assay: Intrinsic clearance in CD1 mouse liver microsomes at 1 uM after 5 to 30 mins by MS analysis in presence of NADPH; assay type: ADME, Microsome
Property Measured: clearance (µL/min/mg)
Write the value in µL/min/mg as a bare number.

// query What does the data say about its clearance? Entry: C/C=C/C[C@@H](C)[C@@H](O)[C@H]1C(=O)N[C@@H](CC)C(=O)N(C)C(SCCN(C)C)C(=O)N(C)[C@@H](CC(C)(C)O)C(=O)N[C@@H](C(C)C)C(=O)N(C)[C@@H](CC(C)C)C(=O)N[C@@H](C)C(=O)N[C@H](C)C(=O)N(C)[C@@H](CC(C)C)C(=O)N(C)[C@@H](CC(C)C)C(=O)N(C)[C@@H](C(C)C)C(=O)N1C (single isomer, unassigned) [SCY 635]
// result 9

* * *

test: AUC (0 to infinity) in monkey at 1.4 mg/kg, iv after 24 hrs by LC/MS/MS analysis; assay type: ADME, organism-based, Macaca mulatta; parameters: time infinity, dose 1.4 mg/kg, route intravenous; conditions: rhesus monkey, plasma
Property Measured: AUC(0-inf)
Please answer using the number first and the unit second.

// query What does the data say about its AUC(0-inf)? Entry: C/C=C/C[C@@H](C)[C@@H](O)[C@H]1C(=O)N[C@@H](CC)C(=O)N(C)C(SCCN(C)C)C(=O)N(C)[C@@H](CC(C)(C)O)C(=O)N[C@@H](C(C)C)C(=O)N(C)[C@@H](CC(C)C)C(=O)N[C@@H](C)C(=O)N[C@H](C)C(=O)N(C)[C@@H](CC(C)C)C(=O)N(C)[C@@H](CC(C)C)C(=O)N(C)[C@@H](C(C)C)C(=O)N1C (single isomer, unassigned) [SCY 635]
// result 49900 ng·h/mL
